Source listed as ChEMBL document CHEMBL1201862.

Tested on: RPMI-8226
test details: NCI tumour cell line growth inhibition, 48 h
Active and inactive are the calls of the source. Rule as the data show it: active = GI50 up to about 1.1 µM and inactive = higher.
Output constraint: value belongs to active, inactive

(Q) Just curious, what result did CN1c2ccccc2C2=C(c3ccccc3)CC[C@@H](C(=O)N3C4CC5CC[C@@]4(CS3(=O)=O)C5(C)C)[C@@H]21 (stereo not given in full) get here?
(A) inactive

(Q) Just curious, what result did `COC(=O)c1ccc2cc(O)c(O)cc2c1` get here?
(A) inactive

----------
Consider the following molecules; for each one, report its GI50.
Tested on: OVCAR-3
test details: NCI tumour cell line growth inhibition, 48 h
Calls of active or inactive are those of the source. No stated cut-off is given here; in the data, active = GI50 up to about 1.1 µM and inactive = higher.

- molecule: "COC(=O)c1ccc2cc(O)c(O)cc2c1"
  GI50: "31.1 µM (inactive)"

Batch request: GI50 per item, same order as input.
1. CN1N=C(N)c2cn(C3OC(COP(=O)(O)O)C(O)C3O)c3ncnc1c23 (stereo not drawn)
2. CC1OC(=O)C2CC3CCCCC3C(/C=C/C3CCCC(C)N3C)C12 (stereo not drawn)
3. OC1(c2ccccc2)C2CC=CC2C1(c1ccccc1)c1ccccc1 (stereo not drawn)
4. COC(=O)C1=NN2c3ccccc3C(=O)OCCC2C1 (stereo not drawn)
5. COc1ccc(/C(Cl)=C(\C=O)c2ccc(Cl)cc2)cc1
6. C=CCn1c2c(sc1=S)C(S)NC=N2 (stereo not drawn)
7. CNc1nc(N)c(N=O)c(Nc2ccc(Br)cc2)n1

(A)
1: 35.2 µM (inactive); 2: > 100 µM (inactive); 3: 30.8 µM (inactive); 4: > 100 µM (inactive); 5: 4.68 µM (inactive); 6: 94.2 µM (inactive); 7: > 100 µM (inactive)

Batch request: GI50 per item, same order as input.
1. Nc1nc(N)c2cc(-c3cc4ccccc4[nH]3)ccc2n1
2. Nc1ncn([C@H]2C[C@H](O)[C@@H](CO)O2)c(=O)n1
3. CC12CC/C(=N/NC(N)=O)C3C1CCCC32
4. Nc1ncc2c(n1)-c1ccccc1OC2N1CCCCC1 (stereo not drawn)
5. c1ccc(/N=C2/SC(c3ccccc3)(c3ccccc3)c3ccccc32)cc1

(A)
35.6 µM (inactive)
76.6 µM (inactive)
> 100 µM (inactive)
> 100 µM (inactive)
> 100 µM (inactive)

Batch request: GI50 per item, same order as input.
1. CC(=O)Nc1cc(Cl)cc(Cl)c1O
2. COc1ccc(Nc2nc3ccccc3n3cccc23)cc1OC
3. COC1=C(OC)C(=O)C(Cc2c(Cl)nc3sccn23)=C(C)C1=O

(A)
1: > 100 µM (inactive); 2: 19.1 µM (inactive); 3: 12.7 µM (inactive)
